# maps each entry to its self-cleavage
B1: CPEB3 Ribozyme (parent)
chain: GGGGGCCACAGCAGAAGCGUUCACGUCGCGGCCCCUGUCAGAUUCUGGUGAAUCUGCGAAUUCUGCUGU

Variants of: B1
Assay: self-cleavage, relative activity (ratio to wild type); higher = more cleavage; co-transcriptional
Form field (numeric): enter value without unit.

Take a look at these entries with their results.
G14U G65U    0.334
C6G C33G    0.0662
A16C A42U    0.102

Endpoint output: self-cleavage of C54U G58A . Value?
0.987

Endpoint output: self-cleavage of C32U C57G . Value?
0.335

Endpoint output: self-cleavage of U46G U62C . Value?
0.993

Endpoint output: self-cleavage of G3C A8G . Value?
0.0364

Endpoint output: self-cleavage of G5A U21A . Value?
0.837

Endpoint output: self-cleavage of U20A G30C . Value?
0.141

Endpoint output: self-cleavage of G5U C32G . Value?
0.815

Endpoint output: self-cleavage of G4A C27A . Value?
0.212

Source: the RNAGym collection of RNA variant scans (doi:10.7554/elife.80360)
